TARGET ENTITY: recombinant human Nav1.8 (Homo sapiens (Human), UniProt Q9Y5Y9)
Sequence (Q9Y5Y9 whole entry): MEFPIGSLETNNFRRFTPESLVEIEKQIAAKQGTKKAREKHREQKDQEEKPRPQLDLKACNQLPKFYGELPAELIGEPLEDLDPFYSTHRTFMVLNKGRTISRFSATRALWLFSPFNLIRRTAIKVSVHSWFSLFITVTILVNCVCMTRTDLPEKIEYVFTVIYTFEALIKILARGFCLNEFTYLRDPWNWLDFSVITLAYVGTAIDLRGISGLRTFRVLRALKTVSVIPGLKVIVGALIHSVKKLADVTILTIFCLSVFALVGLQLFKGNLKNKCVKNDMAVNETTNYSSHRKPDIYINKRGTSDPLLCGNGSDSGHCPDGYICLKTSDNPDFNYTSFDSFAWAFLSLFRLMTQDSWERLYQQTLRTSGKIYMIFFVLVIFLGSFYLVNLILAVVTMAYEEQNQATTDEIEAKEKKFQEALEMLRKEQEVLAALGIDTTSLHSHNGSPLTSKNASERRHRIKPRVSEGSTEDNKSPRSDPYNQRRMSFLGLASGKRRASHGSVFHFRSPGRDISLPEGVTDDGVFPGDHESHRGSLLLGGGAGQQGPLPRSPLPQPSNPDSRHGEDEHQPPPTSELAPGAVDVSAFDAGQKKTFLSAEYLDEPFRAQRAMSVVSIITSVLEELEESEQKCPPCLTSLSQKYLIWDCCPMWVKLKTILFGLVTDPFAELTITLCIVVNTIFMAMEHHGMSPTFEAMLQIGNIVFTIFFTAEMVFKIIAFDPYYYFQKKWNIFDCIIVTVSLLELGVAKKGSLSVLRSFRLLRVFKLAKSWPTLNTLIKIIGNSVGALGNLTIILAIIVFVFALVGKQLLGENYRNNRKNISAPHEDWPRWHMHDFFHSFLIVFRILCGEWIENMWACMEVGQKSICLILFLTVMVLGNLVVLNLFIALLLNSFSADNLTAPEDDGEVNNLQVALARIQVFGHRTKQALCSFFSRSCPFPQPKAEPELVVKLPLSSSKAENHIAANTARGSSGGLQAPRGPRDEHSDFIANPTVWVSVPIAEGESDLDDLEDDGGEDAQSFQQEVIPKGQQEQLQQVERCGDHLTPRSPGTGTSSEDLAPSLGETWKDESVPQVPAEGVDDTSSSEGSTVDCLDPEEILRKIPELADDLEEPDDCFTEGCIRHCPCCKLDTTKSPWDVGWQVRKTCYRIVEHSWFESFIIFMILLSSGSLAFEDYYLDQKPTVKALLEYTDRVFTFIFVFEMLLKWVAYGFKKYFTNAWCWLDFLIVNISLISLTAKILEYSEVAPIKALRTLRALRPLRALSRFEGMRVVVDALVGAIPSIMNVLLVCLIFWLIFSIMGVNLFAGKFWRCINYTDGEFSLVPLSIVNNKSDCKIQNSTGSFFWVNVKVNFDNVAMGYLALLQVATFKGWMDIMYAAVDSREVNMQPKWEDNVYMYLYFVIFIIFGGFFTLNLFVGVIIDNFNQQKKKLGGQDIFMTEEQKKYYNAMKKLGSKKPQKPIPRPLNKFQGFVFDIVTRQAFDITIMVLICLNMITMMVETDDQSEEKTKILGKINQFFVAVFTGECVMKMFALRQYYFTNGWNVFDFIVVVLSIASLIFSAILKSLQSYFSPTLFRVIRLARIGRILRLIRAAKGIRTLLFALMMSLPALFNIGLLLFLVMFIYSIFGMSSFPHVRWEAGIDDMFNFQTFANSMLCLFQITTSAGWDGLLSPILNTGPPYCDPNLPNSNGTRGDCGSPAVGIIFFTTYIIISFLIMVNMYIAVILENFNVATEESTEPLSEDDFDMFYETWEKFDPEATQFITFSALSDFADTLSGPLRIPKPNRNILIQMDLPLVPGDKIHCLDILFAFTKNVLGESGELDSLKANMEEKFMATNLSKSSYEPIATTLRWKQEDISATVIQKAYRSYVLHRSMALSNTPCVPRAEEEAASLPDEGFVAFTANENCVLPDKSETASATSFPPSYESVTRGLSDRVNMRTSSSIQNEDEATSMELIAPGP
PROTOCOL DETAILS: FRET-based membrane potential assay, recombinant human sodium channel Nav1.8
Assay type: cell-based
ASSAY SETUP: HEK293 cells stably expressing recombinant human Nav1.8; veratridine + scorpion venom depolarization
Label key: met means IC50 under 900 nM; not met means IC50 of 900 nM or more.

// known answers, use as guide
# COMPOUND, CLASS NAME
measured = [
    ("O=C(NC1CC(F)(F)C1)c1ccc2cc(Oc3ccc(C(F)F)cn3)ccc2n1", "not met"),
    ("COCCNC(=O)c1ccc2cc(Oc3ccc(C(F)(F)F)nc3)ccc2n1", "not met"),
    ("O=C(c1ccc2cc(Oc3ccc(OC(F)F)cn3)ccc2n1)N1CCNCC1", "met"),
]

Problem: Say whether its IC50 is strictly beneath 900 nM. Entry: `COC[C@@H]1CN(C(=O)c2ccc3cc(Oc4ccc(C(F)F)cn4)ccc3n2)CCN1`
Solution: not met

Problem: In the record for CC1CN(C(=O)c2ccc3cc(Oc4ccc(C(F)F)cn4)ccc3n2)CC(C)N1 (centres unmarked) , is IC50 less than 900 nM?
Solution: not met
